details: in cyclohexane, 308.15 K
observation_type: solubility (mole fraction)
Lab note: jot the number down without any unit.

[in] Query: solubility (mole fraction); subject: O=c1cc(-c2ccccc2)oc2c1ccc1ccccc12
[out] 0.000477

---

conditions: in acetone, 298.15 K
observation_type: solubility (mole fraction)
Lab note: jot the number down without any unit.

[in] Query: solubility (mole fraction); subject: O=c1cc(-c2ccccc2)oc2c1ccc1ccccc12
[out] 0.00546

---

conditions: in 1,4-dioxane, 308.15 K
observation_type: solubility (mole fraction)

[in] Query: solubility (mole fraction); subject: O=c1cc(-c2ccccc2)oc2c1ccc1ccccc12
[out] 0.0259

---

conditions: in acetone, 273.15 K
observation_type: solubility (mole fraction)
Lab note: jot the number down without any unit.

[in] Query: solubility (mole fraction); subject: O=c1cc(-c2ccccc2)oc2c1ccc1ccccc12
[out] 0.00209

---

conditions: in 1,4-dioxane, 298.15 K
observation_type: solubility (mole fraction)
Lab note: jot the number down without any unit.

[in] Query: solubility (mole fraction); subject: O=c1cc(-c2ccccc2)oc2c1ccc1ccccc12
[out] 0.019

---

settings: in acetonitrile, 278.15 K
observation_type: solubility (mole fraction)
Lab note: jot the number down without any unit.

[in] Query: solubility (mole fraction); subject: O=c1cc(-c2ccccc2)oc2c1ccc1ccccc12
[out] 0.000846

---

conditions: in methanol, 308.2 K
observation_type: solubility (mole fraction)

[in] Query: solubility (mole fraction); subject: O=c1cc(-c2ccccc2)oc2c1ccc1ccccc12
[out] 0.00277

---

conditions: in isopropanol, 318.2 K
observation_type: solubility (mole fraction)

[in] Query: solubility (mole fraction); subject: O=c1cc(-c2ccccc2)oc2c1ccc1ccccc12
[out] 0.00313

---

conditions: in toluene, 293.15 K
observation_type: solubility (mole fraction)

[in] Query: solubility (mole fraction); subject: O=c1cc(-c2ccccc2)oc2c1ccc1ccccc12
[out] 0.00862

---

settings: in isobutanol, 273.15 K
observation_type: solubility (mole fraction)

[in] Query: solubility (mole fraction); subject: O=c1cc(-c2ccccc2)oc2c1ccc1ccccc12
[out] 0.000861

---

details: in toluene, 298.15 K
observation_type: solubility (mole fraction)

[in] Query: solubility (mole fraction); subject: O=c1cc(-c2ccccc2)oc2c1ccc1ccccc12
[out] 0.01

---

settings: in acetonitrile, 288.15 K
observation_type: solubility (mole fraction)
Lab note: jot the number down without any unit.

[in] Query: solubility (mole fraction); subject: O=c1cc(-c2ccccc2)oc2c1ccc1ccccc12
[out] 0.00126

---

settings: in acetone, 303.15 K
observation_type: solubility (mole fraction)

[in] Query: solubility (mole fraction); subject: O=c1cc(-c2ccccc2)oc2c1ccc1ccccc12
[out] 0.00636

---

conditions: in cyclohexane, 318.15 K
observation_type: solubility (mole fraction)
Lab note: jot the number down without any unit.

[in] Query: solubility (mole fraction); subject: O=c1cc(-c2ccccc2)oc2c1ccc1ccccc12
[out] 0.000694

---

details: in 1,4-dioxane, 303.15 K
observation_type: solubility (mole fraction)
Lab note: jot the number down without any unit.

[in] Query: solubility (mole fraction); subject: O=c1cc(-c2ccccc2)oc2c1ccc1ccccc12
[out] 0.0223

---

conditions: in isopropanol, 288.2 K
observation_type: solubility (mole fraction)

[in] Query: solubility (mole fraction); subject: O=c1cc(-c2ccccc2)oc2c1ccc1ccccc12
[out] 0.00105
